SYSTEM: T1, PDZ domain of mitochondrial outer membrane protein 25 (mammalian (so in the source)) (UniProt P57105)
T1 sequence (looked up): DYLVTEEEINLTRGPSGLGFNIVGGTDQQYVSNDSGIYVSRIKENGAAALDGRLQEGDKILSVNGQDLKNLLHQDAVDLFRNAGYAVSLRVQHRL
EXPERIMENT_NOTES: indirect ELISA, wild type PDZ coated
met if WT ELISA affinity (LogIC50 (oD450nm)) is below 5. not met if not; exact matches included in not met.

Study these solved cases before continuing.
BINDER	LABEL_CLASS
P13 (VHH) VHH: QVQLVESGGGLVQAGGSLRLSCAASGRTFSTYTMGWFRQAPGKEREFVAAVTWSETLYSDSVKGRFTISRDNAKNTVYLQMNSLKPEDTAVYYCAAVQGSPVDTIVVLTTSEEYDYWGQGTQVTVSS	met
P14 (VHH) VHH: QVQLVESGGGLVQAGDSLRLSCTASGRTFSTYTMAWFRQAPGKEREFVAAISWSGTYYADSVKGRFTISRDNAKNTVYLQMNSLKPEDTAVYYCAAVIGSTVDTYSPSDPLEYDYWGQGTQVTVSS	not met
P2 (VHH) VHH: DVQLVESGGGLVQAGGSLRLSCAASGHTFSSYTMGWFHQAPGKEREFVAEISGTGGNTGYADSVKGRFTISRDNAKNTVYLQMNSLKPEDTAVYYCAAVIGSPTDSSDYRSSLDYDYWGQGTQVTVSE	not met

Pending binder:
Task: In plain terms, does P11 (VHH) VHH: DVQLVESGGGLVQAGGSLRLSCVASGRTFSTYTMGWFRQAPGKEREFVAHIGWSGSSTYYADSVKGRFTISRDNAKNTMYLQMNSLKPEDTAVYYCAVAIGSPVDSYRHSDPLEYDYWGQGTQVTVSE come in under 5 for WT ELISA affinity (LogIC50 (oD450nm))?
Result: met
